- SYSTEM_NAME: Renin (Homo sapiens)
- Sequence (P00797 whole entry): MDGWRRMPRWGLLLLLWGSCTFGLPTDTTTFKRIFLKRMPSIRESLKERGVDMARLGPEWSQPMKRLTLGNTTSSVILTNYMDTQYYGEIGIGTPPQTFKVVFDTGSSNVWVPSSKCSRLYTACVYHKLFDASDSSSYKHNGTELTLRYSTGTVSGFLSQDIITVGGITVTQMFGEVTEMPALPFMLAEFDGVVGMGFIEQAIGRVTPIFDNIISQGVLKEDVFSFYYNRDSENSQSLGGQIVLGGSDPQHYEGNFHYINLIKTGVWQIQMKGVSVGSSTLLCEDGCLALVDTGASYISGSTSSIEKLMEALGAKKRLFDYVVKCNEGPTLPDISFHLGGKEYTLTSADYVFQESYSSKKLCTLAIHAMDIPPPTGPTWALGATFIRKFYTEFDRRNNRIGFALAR
- EXPERIMENTAL_PROTOCOL: In vitro inhibition of purified human kidney renin
PARAMETER_MEASURED: IC50 (nM)

O=C(N[C@@H](Cc1cnc[nH]1)C(=O)N[C@@H](CC1CCCCC1)[C@@H](O)[C@@H](O)CCc1ccccn1)[C@@H](CC(=O)N1CCOCC1)Cc1ccccc1 ... 1.1

a. N[C@H]1CC[C@@H](C(=O)N[C@@H](Cc2ccccc2)C(=O)N[C@@H](Cc2cnc[nH]2)C(=O)N[C@@H](CC2CCCCC2)[C@@H](O)[C@@H](O)CCc2ccccn2)CC1
b. CN(CCN(C)C(=O)N1CCOCC1)C(=O)O[C@@H](Cc1ccccc1)C(=O)N[C@@H](Cc1c[nH]cn1)C(=O)N[C@@H](CC1CCCCC1)[C@@H](O)[C@@H](O)CCc1ccccn1
INPUT: Higher IC50 between a and b ? Pick one and reply with its label.
OUTPUT: a
(a: 0.5 nM, b: 0.16 nM)
